// data source = patent US8420851B2

- target-under-test: TR-α (Homo sapiens, UniProt P10827)
- experimental-protocol: In vitro TR-α activity (in-house protocol)
- Format: cell-based
- stated-conditions: Conc. 10 nM
Hi there, I'd appreciate the recorded TR-α Fold Induction w.r.t T3(100 nm) for every entry that follows.
Give bare numbers.

compound | recorded-measurement
CCOC(=O)N(CC(=O)O)c1cc(Cl)c(Oc2ccc(O)c(C(=O)c3ccc(F)cc3)c2)c(Cl)c1 [Example 15] | 11.34

Would you mind listing TR-α Fold Induction w.r.t T3(100 nm) for each of the following compounds?
1. CC(C)c1cc(Oc2c(Cl)cc(N(CC(=O)O)CC(=O)O)cc2Cl)ccc1O [Example 31]
2. O=C(O)CN(C(=O)Oc1ccc(O)cc1)c1cc(Br)c(Oc2ccc(O)c(S(=O)(=O)NC3CC4CCC3C4)c2)c(Br)c1 (stereo not drawn) [Example 53]
3. CC(C)(C)c1cc(Oc2c(Cl)cc(N(CC(=O)O)CC(=O)O)cc2Cl)ccc1O [Example 34]
4. O=C(O)CN(C(=O)Oc1ccc(O)cc1)c1cc(Cl)c(Oc2ccc(O)c(S(=O)(=O)N3CCCCCC3)c2)c(Cl)c1 [Example 57]
5. CN(C)S(=O)(=O)c1cc(Oc2c(Cl)cc(N(CC(=O)O)C(=O)Oc3ccc(O)cc3)cc2Cl)ccc1O [Example 38]
6. CCOC(=O)N(CC(=O)O)c1cc(Cl)c(Oc2ccc(O)c(C(=O)c3ccc(Cl)s3)c2)c(Cl)c1 [Example 17]
7. CC(C)NS(=O)(=O)c1cc(Oc2c(Cl)cc(N(CC(=O)O)C(=O)Oc3ccc(O)cc3)cc2Cl)ccc1O [Example 45]
8. CC(C)(C)c1cc(Oc2c(Cl)cc(N(CC(=O)O)C(=O)Oc3ccc(O)cc3)cc2Cl)ccc1O [Example 35]

a:
1. 17.06
2. 12.00
3. 26.23
4. 24.62
5. 13.61
6. 21.19
7. 12.02
8. 106.00

Would you mind listing TR-α Fold Induction w.r.t T3(100 nm) for each of the following compounds?
1. O=C(O)CN(CC(=O)O)c1cc(Cl)c(Oc2ccc(O)c(C(=O)c3ccc(Cl)cc3)c2)c(Cl)c1 [Example 28]
2. Cc1cccc(C(=O)c2cc(Oc3c(Cl)cc(N(CC(=O)O)C(=O)Oc4ccc(O)cc4)cc3Cl)ccc2O)c1 [Example 66]
3. CCOC(=O)N(CC(=O)O)c1cc(Cl)c(Oc2ccc(O)c(C(=O)c3ccc(C(C)(C)C)cc3)c2)c(Cl)c1 [Example 24]
4. CCc1cc(Oc2c(Cl)cc(N(CC(=O)O)C(=O)Oc3ccc(O)cc3)cc2Cl)ccc1O [Example 48]
5. CCC(C)c1cc(Oc2c(C)cc(N(CC(=O)O)CC(=O)O)cc2C)ccc1O (stereo not drawn) [Example 21]

a:
1. 14.71
2. 15.36
3. 20.00
4. 17.51
5. 56.81

Simply: CCOC(=O)N(CC(=O)O)c1cc(Cl)c(Oc2ccc(O)c(C(=O)c3ccc(Cl)cc3)c2)c(Cl)c1 [Example 20] , TR-α (Homo sapiens, UniProt P10827), TR-α Fold Induction w.r.t T3(100 nm) = 15.74

###

- target-under-test: TR-α (Homo sapiens, UniProt P10827)
- experimental-protocol: In vitro TR-α activity (in-house protocol)
- Assay type: cell-based
- stated-conditions: Conc. 10 nM
- Description: Invitro TR-α & TR-β activities were determined as per in-house protocols and the results of representative compounds are provided in tables 1 & 2 below as a proof of the efficacies of the novel class of compounds disclosed above.
endpoint-name: TR-α Fold Induction w.r.t T3(100 nm)

A selection of reference data follows.
compound | TR-α Fold Induction w.r.t T3(100 nm)
O=C(O)CN(CC(=O)O)c1cc(Cl)c(Oc2ccc(O)c(S(=O)(=O)N3CCCCC3)c2)c(Cl)c1 | 13.90
CC(C)c1cc(Oc2c(Cl)cc(N(CC(=O)O)C(=O)Oc3ccc(O)cc3)cc2Cl)ccc1O | 74.20
CCOC(=O)N(CC(=O)O)c1cc(Cl)c(Oc2ccc(O)c(C(=O)c3cccc(Cl)c3)c2)c(Cl)c1 | 8.55
O=C(O)CN(C(=O)Oc1ccc(O)cc1)c1cc(Cl)c(Oc2ccc(O)c(S(=O)(=O)NC3CCC3)c2)c(Cl)c1 | 14.43
CCOC(=O)N(CC(=O)O)c1cc(C)c(Oc2ccc(O)c(C(C)CC)c2)c(C)c1 (stereo not shown) | 8.90
CCOC(=O)N(CC(=O)O)c1cc(Cl)c(Oc2ccc(O)c(-c3ccccc3)c2)c(Cl)c1 | 11.10

Below: the item to evaluate.
# TR-α Fold Induction w.r.t T3(100 nm) of `CCOC(=O)N(CC(=O)O)c1cc(Cl)c(Oc2ccc(O)c(C(C)(C)C)c2)c(Cl)c1` = 49.80
